tested system: T1, hK1 (human tissue kallikrein 1), recombinant (human, UniProt P06870 25-262)
T1 construct: Expressed in P. pastoris from KLK1 cDNA and purified; enzymatically active; also called KLK1; Recombinant (Pichia) Kallikrein
assay procedure: SPR

- binder: "M0093-G06 (Fab, V domains shown) VH: EVQLLESGGGLVQPGGSLRLSCAASGFTFSNYHMDWVRQAPGKGLEWVSVIGPSGGFTRYADSVKGRFTISRDNSKNTLYLQMNSLRAEDTAVYYCARALGGSLDYWGQGTLVTVSS VL: AQSALTQPRSVSGSLGQSVTISCTGSTSDVGGYTYVSWYQQEPGKAPKLMIHDVSKRPSGVPDRFSGSKSGNTASLIISGLQAEDEADYYCCSYAGSYSYVFGTGTKVTVLG"
  kon: "372000 M⁻¹ s⁻¹"
- binder: "M0131-G03 (Fab, V domains shown) VH: EVQLLESGGGLVQPGGSLRLSCAASGFTFSHYVMQWVRQAPGKGLEWVSSIYPSGGSTRYADSVKGRFTISRDNSKNTLYLQMNSLRAEDTAMYYCARFNVGFDLWGRGTLVTVSS VL: AQSELTQPPSASGSPGQSLTISCTGGRRDIGNYNYVSWYQQHPGKAPRLIIYDVRKRPSGVPDRFSGSKSGNVAFLTVSGLQTDDEADYYCGSYTGTSNVFGSGTTVTVLG"
  kon: "341000 M⁻¹ s⁻¹"
- binder: "M0116-A08 (Fab, V domains shown) VH: EVQLLESGGGLVQPGGSLRLSCAASGFTFSYYMMGWVRQAPGKGLEWVSSIYTSGGYTKYADSVKGRFTISRDNSKNTLYLQMNSLRAEDTAVYYCARASIYYGMDVWGQGTTVTVSS VL: DIQMTQSPGTLSLSPGERATLSCRASQSVSNSYLAWYQQRPGQAPRLLIYGASSRATGIPDRFSGSGSGTEFTLTISRLEPEDFAVYYCQQFGSSTGYTFGQGTKLELKR"
  kon: "113000 M⁻¹ s⁻¹"
